- Tested on: Staphylococcus aureus ATCC 6538P LRP 14
- protocol text: Bacteriostatic power in solid medium (MIC)
- Type: cell-based
- measurement setup: Staphylococcus aureus, ATCC6538P; solid medium; Penycilline resistant; read-out: Minimum inhibiting concentration
measurement name: MIC (µg/mL)

>>> value_observed("CC[C@H]1OC(=O)[C@H](C)[C@@H](O[C@H]2C[C@@](C)(O)[C@@H](O)[C@H](C)O2)[C@H](C)[C@@H](O[C@@H]2O[C@H](C)C[C@H](N(C)C)[C@H]2O)[C@](C)(O)C[C@](C)(F)C(=O)[C@H](C)[C@@H](O)[C@]1(C)O")
0.097
>>> value_observed("CC[C@H]1OC(=O)[C@H](C)[C@@H](O[C@H]2C[C@@](C)(OC)[C@@H](O)[C@H](C)O2)[C@H](C)[C@@H](O[C@@H]2O[C@H](C)C[C@H](N(C)C)[C@H]2O)[C@](C)(O)C[C@@H](C)C(=O)[C@H](C)[C@@H](O)[C@H]1C [Erythromycin B, reference compound]")
0.195
>>> value_observed("CO[C@H]1C[C@H](O[C@H]2[C@H](C)[C@@H](O[C@@H]3O[C@H](C)C[C@H](N(C)C)[C@H]3O)[C@@H](C)C[C@@]3(CO3)C(=O)[C@H](C)[C@@H](O)[C@@H](C)[C@@H](C)OC(=O)[C@@H]2C)O[C@@H](C)[C@@H]1O [Oleandomycin, reference compound]")
0.39

Attribution: patent US4439426A
